System: human PBMC cells
Assay method text: IFN-α secretion from PBMC under R848 stimulation (compounds)
Type: cell-based
Applied conditions: compound 20 nM, R848 5 μM, 24 hours, mean ± standard deviation
Reported IFN-α secretion (pg/mL) from PBMC under R848 stimulation values for the following compounds.
Quantity measured: IFN-α secretion (pg/mL) from PBMC under R848 stimulation

{"Compound": "C[C@]12C=CC(=O)C=C1CC[C@@H]1[C@@H]2[C@@H](O)C[C@@]2(C)[C@H]1C[C@H]1O[C@@H](c3ccc(Cc4cccc(N)c4)cc3)O[C@]12C(=O)CO", "Assay result": "10.2 ± 10.2 pg/mL"}
{"Compound": "C[C@@H]1C[C@H]2[C@@H]3CCC4=CC(=O)C=C[C@]4(C)[C@@]3(F)[C@@H](O)C[C@]2(C)[C@@]1(O)C(=O)CO [Dexamethasone, dexamethasone, reference compound]", "Assay result": "169.6 ± 94.4 pg/mL"}
{"Compound": "C[C@]12C=CC(=O)C=C1CC[C@@H]1[C@@H]2[C@@H](O)C[C@@]2(C)[C@H]1C[C@H]1O[C@@H](c3ccc(Cc4ccc(CO)c(N)c4)cc3)O[C@]12C(=O)CO", "Assay result": "45.9 ± 45.9 pg/mL"}
{"Compound": "C[C@]12C=CC(=O)C=C1CC[C@@H]1[C@@H]2[C@@H](O)C[C@@]2(C)[C@H]1C[C@H]1O[C@@H](c3ccc(Cc4ccc(CO)cc4)cc3)O[C@]12C(=O)CO", "Assay result": "27.9 ± 27.9 pg/mL"}
